Tested on: Candida albicans
Test: Antimicrobial activity against Candida albicans ATCC 10231 after 48 to 72 hrs by broth dilution method
Assay type: functional
ENDPOINT: MIC (µg/mL)
Report the figure in µg/mL without appending any unit label.

Look over these answered cases.
Oc1cc(Br)c(CCc2cc(O)c(O)cc2Br)cc1O : 50
C[C@@H]1[C@H](O)[C@@H](C)/C=C/C=C/C=C/C=C/C=C/C=C/C=C/[C@H](O[C@@H]2O[C@H](C)[C@@H](O)[C@H](N)[C@@H]2O)C[C@@H]2O[C@](O)(C[C@@H](O)C[C@@H](O)[C@H](O)CC[C@@H](O)C[C@@H](O)CC(=O)O[C@H]1C)C[C@H](O)[C@H]2C(=O)O : 6.25
Oc1cc(Cc2cc(O)c(O)c(Br)c2Br)c(Br)c(Br)c1O : 1.56

Consider the record given below.
Kindly indicate its recorded MIC. Item: `O=C(c1cc(O)c(O)c(Br)c1)c1cc(O)c(O)c(Br)c1Br`
100

====

Tested on: Trichophyton mentagrophytes
Assay: Antimicrobial activity against Trichophyton mentagrophytes IFO 40996 after 48 to 72 hrs by broth dilution method
Assay type: functional
ENDPOINT: MIC

Look over these answered cases.
Oc1cc(COCc2cc(O)c(O)c(Br)c2Br)c(Br)c(Br)c1O : > 100 µg/mL
Oc1cc(Oc2cc(O)c(O)c(Br)c2Br)c(Br)c(Br)c1O : 25 µg/mL
Oc1cc(Cc2cc(O)c(O)c(Br)c2Br)c(Br)c(Br)c1O : 1.56 µg/mL

Kindly indicate its recorded MIC. Item: `O=C(c1cc(O)c(O)c(Br)c1)c1cc(O)c(O)c(Br)c1`
> 100 µg/mL

Kindly indicate its recorded MIC. Item: `Oc1cc(Br)c(CCc2cc(O)c(O)cc2Br)cc1O`
100 µg/mL

Kindly indicate its recorded MIC. Item: `Oc1ccc(Oc2cc(O)c(O)cc2Br)cc1O`
> 100 µg/mL

Kindly indicate its recorded MIC. Item: `Oc1cc(Br)c(COCc2cc(O)c(O)c(Br)c2Br)cc1O`
> 100 µg/mL

====

Below are pIC50 values recorded for Isocitrate lyase (Candida albicans).
Scale: pIC50 equals -log10([C]), with [C] in mol/L.

Look over these answered cases.
Oc1cc(Br)c(Oc2cc(O)c(O)cc2Br)cc1O : 4.51
Oc1ccc(Oc2cc(O)c(O)cc2Br)cc1O : 4.17
O=C(c1ccc(O)c(O)c1)c1ccc(O)c(O)c1 : 4.65
Oc1ccc(CCc2ccc(O)c(O)c2)cc1O : 4.23
Oc1cc(Br)c(Cc2cc(O)c(O)cc2Br)cc1O : 4.34
Oc1cc(Cc2cc(O)c(O)c(Br)c2Br)c(Br)c(Br)c1O : 4.73

Write down the reported pIC50 (system: Isocitrate lyase (Candida albicans)) of `Oc1cc(Br)c(CCc2cc(O)c(O)cc2Br)cc1O`
Sequence (Q9P8Q7 whole entry): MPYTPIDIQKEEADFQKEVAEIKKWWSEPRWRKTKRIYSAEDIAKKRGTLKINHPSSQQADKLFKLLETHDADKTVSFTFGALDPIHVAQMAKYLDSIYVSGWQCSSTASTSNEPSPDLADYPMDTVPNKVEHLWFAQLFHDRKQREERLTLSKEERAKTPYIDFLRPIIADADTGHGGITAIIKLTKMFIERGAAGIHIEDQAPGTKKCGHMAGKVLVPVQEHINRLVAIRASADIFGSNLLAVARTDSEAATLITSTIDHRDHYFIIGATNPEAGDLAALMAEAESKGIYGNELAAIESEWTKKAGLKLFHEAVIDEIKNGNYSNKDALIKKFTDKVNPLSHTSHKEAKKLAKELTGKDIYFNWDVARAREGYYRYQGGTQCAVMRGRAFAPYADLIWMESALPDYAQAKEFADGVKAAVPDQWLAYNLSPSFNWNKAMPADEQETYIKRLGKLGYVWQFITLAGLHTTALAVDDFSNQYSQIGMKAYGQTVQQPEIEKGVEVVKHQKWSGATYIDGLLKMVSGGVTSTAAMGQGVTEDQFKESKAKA
4.67

Write down the reported pIC50 (system: Isocitrate lyase (Candida albicans)) of `Oc1cc(COCc2cc(O)c(O)c(Br)c2Br)c(Br)c(Br)c1O`
4.55

Write down the reported pIC50 (system: Isocitrate lyase (Candida albicans)) of `Oc1cc(Br)c(COCc2cc(O)c(O)c(Br)c2Br)cc1O`
4.81

====

Consider the following compounds and their measured MIC readings.
System: Candida albicans
Assay: Antimicrobial activity against Candida albicans ATCC 10231 after 48 to 72 hrs by broth dilution method
Type: functional

Oc1cc(Br)c(COCc2cc(O)c(O)c(Br)c2Br)cc1O : > 100 µg/mL
Oc1cc(Oc2cc(O)c(O)c(Br)c2Br)c(Br)c(Br)c1O : 25 µg/mL
Oc1ccc(Oc2cc(O)c(O)cc2Br)cc1O : > 100 µg/mL
Oc1cc(Br)c(Cc2cc(O)c(O)cc2Br)cc1O : > 100 µg/mL
Oc1ccc(CCc2ccc(O)c(O)c2)cc1O : > 100 µg/mL

Consider the record given below.
Kindly indicate its recorded MIC. Item: `Oc1cc(Br)c(CCc2cc(O)c(O)c(Br)c2Br)cc1O`
100 µg/mL

====

Test system: Trichophyton mentagrophytes
Assay: Antimicrobial activity against Trichophyton mentagrophytes IFO 40996 after 48 to 72 hrs by broth dilution method
Format: functional
ENDPOINT: MIC

Look over these answered cases.
Oc1ccc(Oc2ccc(O)c(O)c2)cc1O : > 100 µg/mL
O=C(c1cc(O)c(O)c(Br)c1)c1cc(O)c(O)c(Br)c1Br : > 100 µg/mL
Oc1ccc(CCc2ccc(O)c(O)c2)cc1O : 100 µg/mL

Kindly indicate its recorded MIC. Item: `Oc1cc(Br)c(Cc2cc(O)c(O)cc2Br)cc1O`
50 µg/mL

Kindly indicate its recorded MIC. Item: `Oc1cc(Br)c(CCc2cc(O)c(O)c(Br)c2Br)cc1O`
> 100 µg/mL

Kindly indicate its recorded MIC. Item: C[C@@H]1[C@H](O)[C@@H](C)/C=C/C=C/C=C/C=C/C=C/C=C/C=C/[C@H](O[C@@H]2O[C@H](C)[C@@H](O)[C@H](N)[C@@H]2O)C[C@@H]2O[C@](O)(C[C@@H](O)C[C@@H](O)[C@H](O)CC[C@@H](O)C[C@@H](O)CC(=O)O[C@H]1C)C[C@H](O)[C@H]2C(=O)O [AMPHOTERICIN B]
3.12 µg/mL

Kindly indicate its recorded MIC. Item: `Oc1ccc(COCc2ccc(O)c(O)c2)cc1O`
> 100 µg/mL

Kindly indicate its recorded MIC. Item: `Oc1cc(Br)c(Oc2cc(O)c(O)cc2Br)cc1O`
> 100 µg/mL

Kindly indicate its recorded MIC. Item: `O=C(c1ccc(O)c(O)c1)c1ccc(O)c(O)c1`
> 100 µg/mL
